- assay-context: 303.15 K; 101.33 kPa; Liquid; Vibrating tube method
value-kind: mass density (kg/m3)

> print(dat)
                          compound    value.kind  experimental.value
1    CCCN(CCC)CCC [tripropylamine]  mass density              749.15
2            CCCN [propan-1-amine]  mass density               706.1
3        CCN(CC)CC [triethylamine]  mass density              718.44
4             CCCCN [1-butanamine]  mass density              728.65
5         CCCCNCCCC [dibutylamine]  mass density              752.28
6           C1CCCCC1 [cyclohexane]  mass density               769.1
7  CCCCN(CCCC)CCCC [tributylamine]  mass density              770.21
8          CCCNCCC [dipropylamine]  mass density              731.21
9               c1ccccc1 [benzene]  mass density               868.3
